Catalogue of molecules with associated GI50
- test target: BaF3 KIF5B-RET_G810R (Homo sapiens, UniProt P07949, G810R, cells depend on it)
- Construct: fused on or other part: P33176 (Kinesin-1 heavy chain)
- Sequence (P07949 whole entry G810R, the tested form may be a part): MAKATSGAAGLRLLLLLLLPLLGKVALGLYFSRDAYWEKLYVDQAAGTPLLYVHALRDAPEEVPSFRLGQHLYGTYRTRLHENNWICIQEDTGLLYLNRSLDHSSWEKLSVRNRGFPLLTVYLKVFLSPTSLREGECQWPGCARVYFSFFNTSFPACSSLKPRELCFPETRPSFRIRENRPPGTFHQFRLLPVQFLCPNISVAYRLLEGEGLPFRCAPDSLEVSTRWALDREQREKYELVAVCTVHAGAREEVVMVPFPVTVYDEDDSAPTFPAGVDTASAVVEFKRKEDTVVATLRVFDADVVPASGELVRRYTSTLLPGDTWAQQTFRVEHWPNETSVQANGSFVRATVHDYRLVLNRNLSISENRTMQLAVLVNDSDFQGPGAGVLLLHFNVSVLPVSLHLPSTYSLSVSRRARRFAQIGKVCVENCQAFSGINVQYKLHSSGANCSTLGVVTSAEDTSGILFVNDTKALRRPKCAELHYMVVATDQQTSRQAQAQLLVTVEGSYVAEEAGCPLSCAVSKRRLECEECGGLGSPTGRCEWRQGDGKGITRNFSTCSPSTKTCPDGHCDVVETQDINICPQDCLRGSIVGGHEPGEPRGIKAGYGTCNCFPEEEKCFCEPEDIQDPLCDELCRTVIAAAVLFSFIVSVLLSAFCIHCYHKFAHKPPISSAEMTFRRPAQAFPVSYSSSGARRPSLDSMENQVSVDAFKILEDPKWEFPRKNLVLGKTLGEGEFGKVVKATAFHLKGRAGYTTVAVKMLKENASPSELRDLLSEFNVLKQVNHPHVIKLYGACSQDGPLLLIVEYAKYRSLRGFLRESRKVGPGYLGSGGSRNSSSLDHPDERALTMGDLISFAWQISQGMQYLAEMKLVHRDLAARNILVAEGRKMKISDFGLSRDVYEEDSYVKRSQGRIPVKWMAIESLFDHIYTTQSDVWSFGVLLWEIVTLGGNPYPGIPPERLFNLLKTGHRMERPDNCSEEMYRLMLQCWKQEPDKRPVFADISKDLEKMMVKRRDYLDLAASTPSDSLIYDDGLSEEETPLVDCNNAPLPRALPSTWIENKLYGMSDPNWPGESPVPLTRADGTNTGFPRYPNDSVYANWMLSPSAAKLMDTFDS
- protocol text: Cell proliferation assay (CellTiter-Glo, 72 hours)
- Format: cell-based
- applied conditions: anti-cell proliferation, read-out: BaF3 KIF5B-RET_G810R IC50
Value expressed in nM; do not type the unit.

Previously resolved entries follow.
molecule	test target	GI50, nM
O=C1NC2(CCC2)COc2ncc(F)cc2CN2c3nc4c1cnn4cc3O[C@H]1CCC[C@H]12	BaF3 KIF5B-RET_G810R (Homo sapiens, UniProt P07949, G810R, cells depend on it)	128
O=C1N[C@@H]2CCC[C@@H]2Oc2ncc(F)cc2CN2c3nc4c1cnn4cc3O[C@H]1CCC[C@H]12	BaF3 KIF5B-RET_G810R (Homo sapiens, UniProt P07949, G810R, cells depend on it)	73.6

Switching to the query record.
Ask | Identify measured GI50 associated with C[C@H]1CNC(=O)c2cnn3cc4c(nc23)N(Cc2cc(F)ccc2O1)[C@@H]1CCC[C@@H]1O4
Reply | 30
